# credit: patent US20240368122A1

- Tested on: TF1 JAK2 V617F STAT5 reporter
- measurement_protocol: Cellular TF1 STAT5 assay (luciferase reporter), JAK2 V617F
- Type: cell-based
- settings: TF1 JAK2 V617F, read-out: Cell PD TF1 V617F STAT5 (IC50)

[
  {
    "molecule": "CNC(=O)c1nnc(NC(=O)C2CC2)cc1Nc1cccc(-c2ccc(C(=O)N(C)Cc3cn(C)nc3C(F)(F)F)nn2)c1OC",
    "IC50": "500 to 5000 nM"
  },
  {
    "molecule": "CNC(=O)c1nnc(NC(=O)C2CC2)cc1Nc1cc(F)cc(-c2ccc(C(=O)N(C)Cc3cc(C#N)ccn3)nc2)c1OC",
    "IC50": "50 to 500 nM"
  },
  {
    "molecule": "CNC(=O)c1nnc(NC(=O)C2CC2)cc1Nc1cccc(-c2ccc(C(=O)N(C)Cc3cn(C)cn3)nc2)c1OC",
    "IC50": "500 to 5000 nM"
  },
  {
    "molecule": "CNC(=O)c1nnc(NC(=O)C2CC2)cc1Nc1cccc(-c2ccc(C(=O)N(C)Cc3cccc(OC(F)F)n3)nc2)c1OC",
    "IC50": "500 to 5000 nM"
  },
  {
    "molecule": "CNC(=O)c1nnc(NC(=O)C2CC2)cc1Nc1cccc(-c2ccc(C(=O)N(C)[C@@H](C)c3cnn(C)c3)nc2)c1OC (single isomer, unassigned)",
    "IC50": "500 to 5000 nM"
  },
  {
    "molecule": "CNC(=O)c1nnc(NC(=O)C2CC2)cc1Nc1cccc(-c2ccc(C(=O)N(C)Cc3cnc4ccc(Cl)cn34)nc2)c1OC",
    "IC50": "500 to 5000 nM"
  }
]
